assaySystem: GlcNAc(b1-2)[GlcNAc(b1-6)]Man(a1-6)[GlcNAc(b1-2)Man(a1-3)][GlcNAc(b1-4)]Man(b1-4)GlcNAc(b1-4)GlcNAc
assayExplanation: glycan array binding signal (z-score within array); higher = stronger binding
appliedConditions: glycan notation: IUPAC condensed, linker removed
The full list was thinned out, with the strongest signals kept by preference.
resultType: glycan array binding signal (z-score)
Give the value as a plain number.

Gal 9 (Canis lupus) (protein) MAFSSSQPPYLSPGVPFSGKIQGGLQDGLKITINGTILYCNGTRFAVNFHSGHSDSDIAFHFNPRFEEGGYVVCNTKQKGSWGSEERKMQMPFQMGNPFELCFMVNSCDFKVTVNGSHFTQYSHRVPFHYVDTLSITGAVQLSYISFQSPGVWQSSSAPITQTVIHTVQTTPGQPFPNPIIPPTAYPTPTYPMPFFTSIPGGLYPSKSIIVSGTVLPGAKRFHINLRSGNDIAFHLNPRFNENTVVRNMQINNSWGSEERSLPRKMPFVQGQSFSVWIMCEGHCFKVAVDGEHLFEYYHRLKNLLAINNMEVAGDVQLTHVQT | -0.338

Form field glycan array binding signal (z-score), entry SEX4 (Arabidopsis thaliana), Q944A8 (protein) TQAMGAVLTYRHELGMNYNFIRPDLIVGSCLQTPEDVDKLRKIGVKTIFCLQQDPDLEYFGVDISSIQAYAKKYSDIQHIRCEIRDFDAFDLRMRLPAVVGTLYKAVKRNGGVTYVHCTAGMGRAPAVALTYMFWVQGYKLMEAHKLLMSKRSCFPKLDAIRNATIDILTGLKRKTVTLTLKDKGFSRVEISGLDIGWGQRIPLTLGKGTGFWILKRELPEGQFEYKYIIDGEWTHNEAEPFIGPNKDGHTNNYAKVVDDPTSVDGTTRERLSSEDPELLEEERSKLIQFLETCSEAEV : -0.06

Form field glycan array binding signal (z-score), entry Gal 12 (Homo sapiens), Q96DT0 (protein) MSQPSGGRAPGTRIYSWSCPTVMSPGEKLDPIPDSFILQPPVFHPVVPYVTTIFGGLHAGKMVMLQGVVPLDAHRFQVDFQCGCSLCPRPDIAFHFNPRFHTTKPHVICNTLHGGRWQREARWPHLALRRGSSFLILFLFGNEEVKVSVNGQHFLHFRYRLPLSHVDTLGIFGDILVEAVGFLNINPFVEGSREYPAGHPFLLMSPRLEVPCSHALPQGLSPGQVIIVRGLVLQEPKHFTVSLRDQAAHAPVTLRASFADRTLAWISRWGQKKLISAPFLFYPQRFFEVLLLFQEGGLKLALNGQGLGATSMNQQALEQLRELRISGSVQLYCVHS : -0.54

Form field glycan array binding signal (z-score), entry HPA (Helix pomatia), Q575S3 (protein) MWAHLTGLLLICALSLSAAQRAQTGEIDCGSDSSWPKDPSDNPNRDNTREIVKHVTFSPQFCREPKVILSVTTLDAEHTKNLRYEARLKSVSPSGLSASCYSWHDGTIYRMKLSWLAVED : -0.24

Form field glycan array binding signal (z-score), entry CALR truncated at D342 (Homo sapiens) (protein) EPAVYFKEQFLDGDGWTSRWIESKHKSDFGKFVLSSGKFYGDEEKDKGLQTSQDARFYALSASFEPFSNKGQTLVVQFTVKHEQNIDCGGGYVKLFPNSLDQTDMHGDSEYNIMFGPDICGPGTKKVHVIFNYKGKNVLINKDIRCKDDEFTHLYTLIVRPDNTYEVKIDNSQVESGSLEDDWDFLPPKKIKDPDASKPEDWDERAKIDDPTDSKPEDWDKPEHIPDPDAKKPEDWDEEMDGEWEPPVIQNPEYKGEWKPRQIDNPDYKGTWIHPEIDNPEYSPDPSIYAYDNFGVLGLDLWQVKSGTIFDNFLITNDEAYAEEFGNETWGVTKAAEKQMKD : -0.104

Form field glycan array binding signal (z-score), entry Calsepa (Calystegia sepium), P93114 (protein) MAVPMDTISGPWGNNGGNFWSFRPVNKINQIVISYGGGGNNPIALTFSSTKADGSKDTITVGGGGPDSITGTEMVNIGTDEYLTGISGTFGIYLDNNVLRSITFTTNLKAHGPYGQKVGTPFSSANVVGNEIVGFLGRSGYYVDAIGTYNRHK : 5.82

Provenance of the data: the supplement of paper PMC8728848
